subject.of.test: UniProtKB P00736
assay.protocol: anti-complement (anti-C1 esterase) activity, C1r hydrolysis of AAME (acetyl-arginine methyl ester)
Assay type: biochemical
protocol.conditions: hydrolysis of AAME; read-out: Clr: molar concentration inhibiting 50% of C1r activity (IC50)
Structures can show the parent of a compound that is named as a salt.
parameter: IC50 (µM)

Examples from the recorded data:
| molecule | parameter | unit.abbreviation | val |
| --- | --- | --- | --- |
| Cc1oc(=O)oc1COC(=O)CCC(=O)NCc1ccc(C(=O)Oc2ccc3cc(C(=N)N)ccc3c2)o1 [Example 33, hydrochloride] | IC50 | µM | 0.14 |
| N=C(N)c1ccc2cc(OC(=O)c3ccc(CNC(=O)C=Cc4ccc(C(=O)O)cc4)o3)ccc2c1 [Example 8, hydrochloride] | IC50 | µM | 0.83 |
| Cl.N=C(N)c1ccc2cc(OC(=O)c3ccc(CNC(=O)Cc4ccc(C(=O)O)cc4)o3)ccc2c1 [Example 6, hydrochloride] | IC50 | µM | 0.023 |
| CC(C)(C)OC(=O)CC(=O)NCc1ccc(C(=O)Oc2ccc3cc(C(=N)N)ccc3c2)o1 [Example 15, hydrochloride] | IC50 | µM | 0.84 |

I: CC(C)(C)OC(=O)CCC(NC(=N)N)C(=O)NCc1ccc(C(=O)Oc2ccc3cc(C(=N)N)ccc3c2)o1 (stereo not drawn) [Example 20, hydrochloride hydrobromide]
II: COC(=O)Cc1ccc(C(=O)NCc2ccc(C(=O)Oc3ccc4cc(C(=N)N)ccc4c3)o2)cc1 [Example 4, hydrochloride]
// query Which is greater in IC50, the first item I or the second item II ? Respond using the label that marks the chosen record.
// result I
(I: 0.38 µM, II: 0.064 µM)

----------
subject.of.test: C1r (Homo sapiens)
Sequence (P00736 18-705): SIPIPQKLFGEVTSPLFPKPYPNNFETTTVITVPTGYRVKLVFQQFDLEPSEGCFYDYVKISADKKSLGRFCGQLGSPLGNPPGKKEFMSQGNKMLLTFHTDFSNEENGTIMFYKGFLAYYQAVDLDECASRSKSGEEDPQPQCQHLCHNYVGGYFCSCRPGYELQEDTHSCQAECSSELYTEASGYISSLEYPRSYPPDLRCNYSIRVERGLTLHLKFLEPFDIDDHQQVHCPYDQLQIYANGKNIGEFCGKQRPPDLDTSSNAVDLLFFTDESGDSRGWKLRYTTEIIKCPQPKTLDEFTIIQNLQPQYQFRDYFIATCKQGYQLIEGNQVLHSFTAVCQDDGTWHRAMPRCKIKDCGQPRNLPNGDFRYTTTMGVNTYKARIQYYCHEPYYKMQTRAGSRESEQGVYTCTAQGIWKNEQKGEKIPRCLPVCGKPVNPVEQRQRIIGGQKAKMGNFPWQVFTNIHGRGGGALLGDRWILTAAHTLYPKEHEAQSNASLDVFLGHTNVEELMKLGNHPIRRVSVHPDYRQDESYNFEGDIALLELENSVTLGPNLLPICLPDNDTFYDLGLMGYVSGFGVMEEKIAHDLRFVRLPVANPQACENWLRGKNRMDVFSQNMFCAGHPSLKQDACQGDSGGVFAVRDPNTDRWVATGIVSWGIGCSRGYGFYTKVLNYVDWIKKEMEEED
assay.protocol: anti-complement (anti-C1 esterase) activity, C1r hydrolysis of AAME (acetyl-arginine methyl ester)
Format: biochemical
protocol.conditions: hydrolysis of AAME; read-out: Clr: molar concentration inhibiting 50% of C1r activity (IC50)
Structures can show the parent of a compound that is named as a salt.
parameter: IC50 (nM)

Examples from the recorded data:
| compound | unit.abbreviation | IC50 |
| --- | --- | --- |
| CC(C)(C)OC(=O)CCCC(=O)NCc1ccc(C(=O)Oc2ccc3cc(C(=N)N)ccc3c2)o1 [Example 19, hydrochloride] | nM | 1800 |
| N=C(N)c1ccc2cc(OC(=O)c3ccc(CNC(=O)/C=C\C(=O)O)o3)ccc2c1 [Example 12, methanesulfonate] | nM | 2800 |
| CN(C)C(=O)COC(=O)CCC(=O)NCc1ccc(C(=O)Oc2ccc3cc(C(=N)N)ccc3c2)o1 [Example 31, hydrochloride] | nM | 290 |
| COC(=O)CCC(=O)NCc1ccc(C(=O)Oc2ccc3cc(C(=N)N)ccc3c2)o1.Cl [Example 34, hydrochloride] | nM | 330 |
| N=C(N)c1ccc2cc(OC(=O)c3ccc(CNC(=O)C(=O)O)o3)ccc2c1 [Example 16, hydrochloride] | nM | 6900 |

P: N=C(N)c1ccc2cc(OC(=O)c3ccc(CNC(=O)c4ccc(CCC(=O)O)cc4)o3)ccc2c1 [Example 9, hydrochloride]
Q: N=C(N)c1ccc2cc(OC(=O)c3ccc(CNC(=O)c4ccc(CC(=O)O)cc4)o3)ccc2c1 [Example 7, hydrochloride]
// query Please indicate which has the smaller reported IC50: P , or Q . Respond using the label that marks the chosen record.
// result Q

----------
subject.of.test: trypsin (Bos taurus)
assay.protocol: anti-trypsin activity, hydrolysis of TAME (tosylarginine methyl ester)
Assay type: biochemical
Counter-ions that a name gives are not always drawn.
parameter: IC50 (µM)
Supply the numeric figure in µM, leaving out any unit text.

// query Entry under review: CC(C)(C)OC(=O)C=Cc1ccc(C(=O)NCc2ccc(C(=O)Oc3ccc4cc(C(=N)N)ccc4c3)o2)cc1 [Example 1, hydrobromide] . Reported IC50?
// result 0.35

----------
Where a name gives a salt, the structure may show the parent alone.
The following compounds each carry a recorded IC50 for thrombin (Homo sapiens).
parameter: IC50 (µM)

Examples from the recorded data:
| compound | unit.abbreviation | IC50 |
| --- | --- | --- |
| Cl.N=C(N)c1ccc2cc(OC(=O)c3ccc(CNC(=O)CC(=O)O)o3)ccc2c1 [Example 17, hydrochloride] | µM | 1.9 |
| Cc1oc(=O)oc1COC(=O)CCC(=O)NCc1ccc(C(=O)Oc2ccc3cc(C(=N)N)ccc3c2)o1 [Example 33, hydrochloride] | µM | 0.023 |
| N=C(N)c1ccc2cc(OC(=O)c3ccc(CNC(=O)C=Cc4ccc(C(=O)O)cc4)o3)ccc2c1 [Example 8, hydrochloride] | µM | 1.4 |
| Cl.N=C(N)c1ccc2cc(OC(=O)c3ccc(CNC(=O)CCCC(=O)O)o3)ccc2c1 [Example 22, hydrochloride] | µM | 3.5 |

a: CC(C)(C)OC(=O)CCC(NC(=N)N)C(=O)NCc1ccc(C(=O)Oc2ccc3cc(C(=N)N)ccc3c2)o1 (stereo not drawn) [Example 20, hydrochloride hydrobromide]
b: N=C(N)NC(CCC(=O)O)C(=O)NCc1ccc(C(=O)Oc2ccc3cc(C(=N)N)ccc3c2)o1 (stereo not drawn) [Example 29, dihydrobromide]
// query Please indicate which has the smaller reported IC50: a , or b . Respond using the label that marks the chosen record.
// result a
(a: 0.46 µM, b: 1.6 µM)

----------
subject.of.test: trypsin (Bos taurus, UniProt P00760)
Sequence (P00760 24-246): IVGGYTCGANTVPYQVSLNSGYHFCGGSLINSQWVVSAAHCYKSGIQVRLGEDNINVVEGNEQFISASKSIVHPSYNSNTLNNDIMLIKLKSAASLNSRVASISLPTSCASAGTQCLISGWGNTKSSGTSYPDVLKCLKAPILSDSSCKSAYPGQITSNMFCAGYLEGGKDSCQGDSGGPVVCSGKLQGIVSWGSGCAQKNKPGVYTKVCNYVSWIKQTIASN
assay.protocol: anti-trypsin activity, hydrolysis of TAME (tosylarginine methyl ester)
Type: biochemical
protocol.conditions: hydrolysis of TAME; read-out: Try: molar concentration inhibiting 50% of enzyme activity (IC50)
pIC50: −log10 of the molar value. Structures can show the parent of a compound that is named as a salt.
parameter: pIC50

P: N=C(N)c1ccc2cc(OC(=O)c3ccc(CNC(=O)c4ccc(CCC(=O)O)cc4)o3)ccc2c1 [Example 9, hydrochloride]
Q: N=C(N)c1ccc2cc(OC(=O)c3ccc(CNC(=O)[C@H]4CC[C@@H](C(=O)O)CC4)o3)ccc2c1 [Example 10, hydrochloride]
// query Please indicate which has the smaller reported pIC50: P , or Q . Respond using the label that marks the chosen record.
// result P

P: CN(C)C(=O)COC(=O)CCC(=O)NCc1ccc(C(=O)Oc2ccc3cc(C(=N)N)ccc3c2)o1 [Example 31, hydrochloride]
Q: N=C(N)c1ccc2cc(OC(=O)c3ccc(CNC(=O)C(=O)O)o3)ccc2c1 [Example 16, hydrochloride]
R: N=C(N)c1ccc2cc(OC(=O)c3ccc(CNC(=O)c4ccc(CC(=O)O)cc4)o3)ccc2c1 [Example 7, hydrochloride]
// query Arrange these compounds by their pIC50, starting with the largest number. Arrange the labels as the request states and list them.
// result Q, P, R
(Q: 6.47, P: 6.22, R: 5.74)

----------
Tested on: kallikrein
assay.protocol: anti-kallikrein activity, hydrolysis of TAME (tosylarginine methyl ester)
Type: biochemical
protocol.conditions: hydrolysis of TAME; read-out: Kal: molar concentration inhibiting 50% of enzyme activity (IC50)
Structures can show the parent of a compound that is named as a salt.
parameter: IC50 (µM)

| compound | subject.of.test | unit.abbreviation | IC50 |
| --- | --- | --- | --- |
| CC(C)(C)OC(=O)CCCC(=O)NCc1ccc(C(=O)Oc2ccc3cc(C(=N)N)ccc3c2)o1 [Example 19, hydrochloride] | kallikrein | µM | 0.25 |

P: N=C(N)NC(CCC(=O)O)C(=O)NCc1ccc(C(=O)Oc2ccc3cc(C(=N)N)ccc3c2)o1 (stereo not drawn) [Example 29, dihydrobromide]
Q: CC(C)(C)OC(=O)CCC(NC(=N)N)C(=O)NCc1ccc(C(=O)Oc2ccc3cc(C(=N)N)ccc3c2)o1 (stereo not drawn) [Example 20, hydrochloride hydrobromide]
R: N=C(N)c1ccc2cc(OC(=O)c3ccc(CNC(=O)c4ccc(CCC(=O)O)cc4)o3)ccc2c1 [Example 9, hydrochloride]
// query Arrange these compounds by their IC50, starting with the largest number. Arrange the labels as the request states and list them.
// result R, P, Q
(R: 6 µM, P: 0.24 µM, Q: 0.13 µM)
